test: FLuc inhibitory activity for the follow-up compounds in a cell-based translational read-through assay; details: GripTite 293 FLucUGA read-through, luminescence, 48 h; series mostly up to 38.3 µM
Results filed as inconclusive are left out. The source made the active and inactive calls. Calls follow the shape of the dose curve; as a rule, active = well fitted activation curve with a large enough effect; inconclusive = small, poorly fitted or top-dose-only effect; inactive = flat fitted curve, though single readings scatter.
Outcomes: Yes for active, No for inactive

given_smiles=COc1ccc2nc(NC(=O)c3ccco3)sc2c1 assigned_label=Yes
given_smiles=COc1ccc(NS(=O)(=O)c2cccc(C(=O)Nc3ccccc3C(=O)O)c2)cc1 assigned_label=No
given_smiles=COc1cc(OC)cc(C(=O)Nc2ccccc2-c2nc3ccccc3s2)c1 assigned_label=No
given_smiles=Cc1ccc2nc(-c3ccc(N)cc3)sc2c1 assigned_label=Yes
given_smiles=Cc1ccc(C(=O)Nc2cccc(C(=O)O)c2)cc1S(=O)(=O)N1CCCCC1 assigned_label=Yes
given_smiles=O=C(Nc1ccc(Cl)cc1-c1nc2ccccc2s1)c1ccco1 assigned_label=No
given_smiles=O=C(Nc1ccccc1-c1nc2ccccc2s1)c1cccnc1 assigned_label=No
given_smiles=CC(C)(C)NC(=O)c1ccccc1-c1nc2ccccc2s1 assigned_label=No
given_smiles=CCOc1ccc2nc(NC(=O)c3cc([N+](=O)[O-])ccc3N3CCOCC3)sc2c1 assigned_label=No
given_smiles=O=C(O)c1ccc(NC(=O)c2cccc(C(=O)Nc3ccc(C(=O)O)cc3)c2)cc1 assigned_label=No
given_smiles=O=C(O)c1ccc(NC(=O)c2cccc(NC(=O)c3cccs3)c2)cc1 assigned_label=No
